pIC50: −log10 of the molar value.
quantity kind: pIC50

Data request: Form field: pIC50 recorded for N#Cc1ccccc1SC1=C(O)CC(c2ccccc2)CC1=O (stereo unspecified) with UniProt:P11712 (enter value)
Sequence (P11712 whole entry): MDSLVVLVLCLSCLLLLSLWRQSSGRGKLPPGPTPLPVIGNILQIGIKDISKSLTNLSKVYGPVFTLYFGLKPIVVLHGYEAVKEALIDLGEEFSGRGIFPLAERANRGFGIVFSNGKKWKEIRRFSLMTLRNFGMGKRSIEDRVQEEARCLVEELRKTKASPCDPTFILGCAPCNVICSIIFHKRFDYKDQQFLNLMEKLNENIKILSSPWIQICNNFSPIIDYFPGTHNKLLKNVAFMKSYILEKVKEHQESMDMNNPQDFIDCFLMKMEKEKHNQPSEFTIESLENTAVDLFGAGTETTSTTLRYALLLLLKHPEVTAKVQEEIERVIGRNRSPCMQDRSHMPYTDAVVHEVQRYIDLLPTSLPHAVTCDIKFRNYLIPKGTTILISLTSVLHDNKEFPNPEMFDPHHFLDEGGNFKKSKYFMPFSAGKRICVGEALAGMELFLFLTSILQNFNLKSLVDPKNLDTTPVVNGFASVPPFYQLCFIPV
Data returned: < 5.30

* * *

Assay: Half life in Sprague-Dawley rat plasma at 0.5 mg/kg, iv
Format: ADME, organism-based
Parameters: dose 0.5 mg/kg, route intravenous
quantity kind: half-life

Data request: # get_value(readout='half-life', item= O=C1CC(c2c(Cl)cccc2Cl)CC(O)=C1Sc1ccccc1Cl (stereo unspecified) )
Data returned: 13.2 h

* * *

Target: L-lactate dehydrogenase A chain (Homo sapiens, UniProt P00338)
Assay: Inhibition of human recombinant carboxy-terminal His-tagged LDHA by SPR assay in presence of +NADH
quantity kind: Kd (µM)
The response must be a number in µM with no trailing unit.

Data request: # get_value(readout='Kd', item= O=C1CC(c2ccccc2)CC(O)=C1Sc1ccccc1[N+](=O)[O-] (stereo unspecified) )
Data returned: 3.5
